System: MCF7
Test: Cytotoxicity against human MCF7 cells after 3 days by SRB assay
Format: functional, cell-based
Conditions: MCF7, 72 h
property_measured: IC50 (µg/mL)
Number only, in µg/mL; omit the unit.

Field IC50 (entry O=c1c2cc(O)ccc2oc2cccc(O)c12 ) reads 19.5

Field IC50 (entry C=C(C)C(O)Cc1c(O)c(O)cc2oc3cc(O)cc(O)c3c(=O)c12 (centres undefined) ) reads 11.2

Field IC50 (entry CC1(C)CCc2c(c(O)cc3oc4cc(O)cc(O)c4c(=O)c23)O1 ) reads 19.3

---

System: A549
Assay: Cytotoxicity against human A549 cells at 20 mcg/mL after 3 days by SRB assay
Format: functional
Settings: A549, 72 h
So I've got a bunch of compounds here, and I need their inhibition at 20 µg/mL values.
Number only, in %; omit the unit.

Field inhibition at 20 µg/mL (entry C=C(C)C(O)Cc1c(O)ccc2oc3cc(O)cc(O)c3c(=O)c12 (centres undefined) ) reads 43

Field inhibition at 20 µg/mL (entry CC(C)(O)C1Cc2c(c(O)cc3oc4cc(O)cc(O)c4c(=O)c23)O1 (centres undefined) ) reads 26

Field inhibition at 20 µg/mL (entry CC(C)=CCC[C@]1(C)[C@@H](CC=C(C)C)C[C@]2(C)C(=O)[C@@]3(CC=C(C)C)O[C@]2(O)[C@]1(C(=O)C(C)C)C3=O ) reads 49

Field inhibition at 20 µg/mL (entry CC1(C)C=Cc2c(c(O)cc3oc4cc(O)cc(O)c4c(=O)c23)O1 ) reads 28

---

Tested on: MCF7
Test: Cytotoxicity against human MCF7 cells after 3 days by SRB assay
Format: functional, cell-based
Settings: MCF7, 72 h
So I've got a bunch of compounds here, and I need their IC50 values.
Number only, in µg/mL; omit the unit.

Tested on MCF7: O=c1c(O)c(-c2ccc(O)c(O)c2)oc2cc(O)cc(O)c12 . Observed IC50: 19.5

Tested on MCF7: CC(C)=CC[C@H]1C[C@@]2(CC=C(C)C)C(=O)C(C(=O)c3ccccc3)=C(O)[C@](C)(C2=O)C1(C)C . Observed IC50: 15

Tested on MCF7: COc1ccc(O)c2c(=O)c3cc(O)ccc3oc12 . Observed IC50: 15.2

Tested on MCF7: CC(C)=CC[C@H]1C[C@]2(CC=C(C)C)C(=O)C(C(=O)c3ccccc3)=C(O)[C@](CC=C(C)C)(C2=O)C1(C)C . Observed IC50: 10

Tested on MCF7: O=c1c2ccc(O)c(O)c2oc2cc(O)cc(O)c12 . Observed IC50: 9.3

Tested on MCF7: CC(C)=CC[C@@]12C[C@H]3[C@@H](C=C(C)C)[C@@](C(=O)c4ccccc4)(C1=O)C(=O)[C@@](CC=C(C)C)(C2=O)C3(C)C . Observed IC50: 10

Tested on MCF7: O=c1cc(-c2ccc(O)c(O)c2)oc2cc(O)cc(O)c12 . Observed IC50: 14.3

Tested on MCF7: C[C@H]1O[C@@H](Oc2c(-c3cc(O)c(O)c(O)c3)oc3cc(O)cc(O)c3c2=O)[C@@H](O)[C@@H](O)[C@@H]1O . Observed IC50: 11.2

Tested on MCF7: CC(C)=CCC[C@]1(C)[C@@H](CC=C(C)C)C[C@]2(C)C(=O)[C@@]3(CC=C(C)C)O[C@]2(O)[C@]1(C(=O)C(C)C)C3=O . Observed IC50: 17.8

Tested on MCF7: CC(C)=CCc1c(O)c(O)cc2oc3cc(O)cc(O)c3c(=O)c12 . Observed IC50: 18.4

Tested on MCF7: O=c1c(O)c(-c2cc(O)c(O)c(O)c2)oc2cc(O)cc(O)c12 . Observed IC50: 4.7

---

System: A549
Assay: Cytotoxicity against human A549 cells at 20 mcg/mL after 3 days by SRB assay
Format: functional
Settings: A549, 72 h
Label Y when inhibition at 20 µg/mL is at or above 20%; otherwise label N.

## Task Reported inhibition at 20 µg/mL reaches at least 20% for O=c1c(O[C@@H]2OC[C@@H](O)[C@@H](O)[C@@H]2O)c(-c2ccc(O)c(O)c2)oc2cc(O)cc(O)c12 ?
## Result N

## Task Reported inhibition at 20 µg/mL reaches at least 20% for O=c1c(-c2c(O)cc(O)c3c(=O)cc(-c4ccc(O)cc4)oc23)c(-c2ccc(O)cc2)oc2cc(O)cc(O)c12 ?
## Result Y

## Task Reported inhibition at 20 µg/mL reaches at least 20% for C[C@H]1O[C@@H](Oc2c(-c3cc(O)c(O)c(O)c3)oc3cc(O)cc(O)c3c2=O)[C@@H](O)[C@@H](O)[C@@H]1O ?
## Result N

## Task Reported inhibition at 20 µg/mL reaches at least 20% for O=c1c(O)c(-c2ccc(O)c(O)c2)oc2cc(O)cc(O)c12 ?
## Result Y

## Task Reported inhibition at 20 µg/mL reaches at least 20% for C[C@@H]1O[C@@H](Oc2c(-c3ccc(O)c(O)c3)oc3cc(O)cc(O)c3c2=O)[C@H](O)[C@H](O)[C@H]1O ?
## Result N
